assay: modulators of S6 phosphorylation in cells, primary screen, cell-based, A549, cytoblot, luminescence, serum-stimulated (AID 1158); details: A549 phospho-S6 cytoblot, 5 h, higher = more signal;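 also: serum-stimulated A549 lung adenocarcinoma cells; signal is phosphorylated S6 detected by cytoblot immunostaining with HRP secondary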
Consider the following compounds; for each one, report its z-score.
When you answer, write just the number.

For the compound `CC(C)N1C(=O)c2ccccc2[C@@H](C(=O)NCc2ccccc2)[C@@H]1c1ccc(CO)cc1` , report z-score.
0.325

Give reported z-score value for `CN(C)CCCC[C@@H]1NC(=O)[C@@H]2C[C@H](C(=O)NCCCCCNC(=O)CS)[C@H](c3cccc(OCCO)c3)N2C1=O`
2.45

Assign z-score to the following record: CC(C)C[C@@H]1NC(=O)[C@@]23C(=O)N[C@@H](Cc4ccccc4)C2[C@H](C)[C@@]2(C)O[C@H]2C3/C=C/CC/C=C/CNC(=O)[C@@H](C)NC1=O (stereo not given in full)
0.595

Supply z-score value. Item: `CO[C@H]1O[C@H](CO)[C@@H](OC(=O)Nc2ccccc2)[C@H](OC(=O)Nc2ccc3c(c2)OCO3)[C@H]1OC(=O)Nc1ccc2c(c1)OCO2`
1.21

Determine from records and report z-score for `C=CCNC(=O)[C@@H]1[C@H]2C(=O)O[C@H](c3ccccc3)[C@H](c3ccccc3)N2[C@H](c2ccc(O)cc2)[C@@]12C(=O)N(C(=O)OCCOC)c1ccc(C#Cc3ccc(OC)cc3)cc12`
-0.0456

Input `COCCOC(=O)N1C(=O)[C@@]2(c3cc(C#CC4(O)CCCCCC4)ccc31)[C@H](C(=O)NC[C@H](O)c1ccccc1)[C@H]1C(=O)O[C@H](c3ccccc3)[C@H](c3ccccc3)N1[C@@H]2c1ccccc1OCCO` , output reported z-score.
0.632

Find the measured z-score of `CCCNC(=O)[C@@H]1c2ccccc2C(=O)N(Cc2cc(C(F)(F)F)cc(C(F)(F)F)c2)[C@H]1c1ccc(CO)cc1` and report it.
0.488

Give z-score for the following compound: COC(=O)C1=CC(c2ccc(CO)cc2)=CC(c2cccs2)N(C)C=C1C(=O)OC (stereo not given)
1.67

Quote z-score reported for `COCCCN1C(=O)[C@@]2(Cc3ccccc31)c1ccccc1C(=O)N(Cc1ccccc1Cl)[C@H]2c1ccc(CO)cc1` please.
1.34

Identify z-score associated with the compound `O=C1c2ccccc2C(=O)c2cc([C@H]3Oc4ccccc4S(=O)(=O)N4CCC[C@@H]34)ccc21`
1.1

Look up z-score of `O=C(NCC(F)(F)F)[C@@H]1c2ccccc2C(=O)N(C2Cc3ccccc3C2)[C@H]1c1ccc(CO)cc1` and report it.
1.14

Give the value of z-score reported for the following: `C=C(COC)/C(=C/C[C@H](OC(C)=O)c1cccc(OCCO)c1)c1cc(C(=O)OC)ccc1OC`
1.44

Indicate its recorded z-score; the compound in question is CCCCCN1CC=CC23O[C@@H]4/C=C\CCC(C)OC(=O)C4[C@H]2C(=O)N(CCCO)[C@@H]3C1=O (stereo not given in full)
0.0147

Specify measured z-score for `CC(C)C(=C=CC[C@@H](O)c1ccc(CO)o1)CCO` .
-0.109

Give me measured z-score, please, for this compound: `C=CC[C@@]1(C(=O)NCc2ccccc2)N=C(c2ccc(OCCCO)cc2)O[C@@H]1c1ccccc1`
1.46
